testSystem: GABAA R (α5β2γ2) (Homo sapiens, UniProt P18507+P31644)
Construct: expressed in transfected cells
Sequence (P31644 32-462): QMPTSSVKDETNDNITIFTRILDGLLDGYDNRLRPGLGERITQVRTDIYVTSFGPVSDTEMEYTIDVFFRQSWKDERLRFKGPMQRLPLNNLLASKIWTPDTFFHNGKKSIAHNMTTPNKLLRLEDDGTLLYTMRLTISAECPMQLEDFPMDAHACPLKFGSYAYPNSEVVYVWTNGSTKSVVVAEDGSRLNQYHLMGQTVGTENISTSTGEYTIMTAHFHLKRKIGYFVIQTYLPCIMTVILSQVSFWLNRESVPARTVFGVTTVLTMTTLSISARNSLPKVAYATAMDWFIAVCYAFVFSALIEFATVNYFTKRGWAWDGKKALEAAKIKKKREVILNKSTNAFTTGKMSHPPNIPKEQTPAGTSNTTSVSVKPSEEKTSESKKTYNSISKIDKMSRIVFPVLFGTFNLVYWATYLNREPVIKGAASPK
Sequence (P47870 25-512 partner limits assumed): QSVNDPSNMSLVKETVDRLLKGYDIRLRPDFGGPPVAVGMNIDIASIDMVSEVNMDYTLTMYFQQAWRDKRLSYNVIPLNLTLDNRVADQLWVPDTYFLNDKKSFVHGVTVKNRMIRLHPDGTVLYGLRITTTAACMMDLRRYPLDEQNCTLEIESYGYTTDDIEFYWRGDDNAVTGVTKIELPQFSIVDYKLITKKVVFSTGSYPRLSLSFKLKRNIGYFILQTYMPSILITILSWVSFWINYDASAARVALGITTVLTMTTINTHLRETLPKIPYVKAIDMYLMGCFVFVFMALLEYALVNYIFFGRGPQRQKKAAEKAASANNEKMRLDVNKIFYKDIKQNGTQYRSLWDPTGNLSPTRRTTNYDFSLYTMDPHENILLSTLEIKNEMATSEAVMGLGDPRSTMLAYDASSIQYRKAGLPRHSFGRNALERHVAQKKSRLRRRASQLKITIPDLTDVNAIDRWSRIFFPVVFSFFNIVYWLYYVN
Sequence (P18507 40-475): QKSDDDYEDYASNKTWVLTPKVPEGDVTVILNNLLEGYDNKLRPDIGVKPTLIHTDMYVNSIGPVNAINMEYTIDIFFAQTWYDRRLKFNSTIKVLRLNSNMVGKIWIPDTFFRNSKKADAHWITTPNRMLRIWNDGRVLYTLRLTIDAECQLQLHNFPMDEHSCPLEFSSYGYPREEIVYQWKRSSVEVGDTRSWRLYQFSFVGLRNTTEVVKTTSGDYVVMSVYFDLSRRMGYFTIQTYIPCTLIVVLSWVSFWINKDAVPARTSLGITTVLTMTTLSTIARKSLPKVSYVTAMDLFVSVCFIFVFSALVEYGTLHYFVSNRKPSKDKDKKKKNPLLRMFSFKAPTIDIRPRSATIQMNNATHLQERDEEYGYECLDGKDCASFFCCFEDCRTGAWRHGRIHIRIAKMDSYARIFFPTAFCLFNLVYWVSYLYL
method: Positive allosteric modulator activity: potentiation of EC20 GABA current in oocytes
Format: cell-based
conditionsUsed: read-out: GABA α5 Functional Data: potentiation, @ 100 nM, EC20 GABA; ranges of the column heads
measuredProperty: activation at 0.1 µM

Here are 5 compounds together with their reported answers.
compound=Clc1ccc2c(c1)-c1[nH]ncc1Cc1c(-c3nc(C4CC4)no3)ncn1-2 measuredproperty="activation at 0.1 µM" testvalue="20 to 50%"
compound=COc1ccc2c(c1)-c1nn(Cc3cccnc3)cc1Cc1c(-c3nc(C(C)C)no3)ncn1-2 measuredproperty="activation at 0.1 µM" testvalue="20 to 50%"
compound="COCc1noc(-c2ncn3c2Cc2cn(C4CCOC4)nc2-c2cc(Cl)ccc2-3)n1 (centres unmarked)" measuredproperty="activation at 0.1 µM" testvalue="5 to 20%"
compound=Cn1cc2c(n1)-c1cc(Cl)ccc1-n1cnc(-c3cnn(Cc4ccccc4)c3)c1C2 measuredproperty="activation at 0.1 µM" testvalue="5 to 20%"
compound="Cn1cc2c(n1)-c1cc(Cl)ccc1-n1cnc(-c3nc(C4CCOC4)no3)c1C2 (centres unmarked)" measuredproperty="activation at 0.1 µM" testvalue="20 to 50%"

Lab note: measured activation at 0.1 µM of `CC(C)(C)c1noc(-c2ncn3c2Cc2cn[nH]c2-c2cc(Cl)ccc2-3)n1` was 20 to 50%
